Experimental protocol: LC-12 squamous cell lung carcinoma implanted subcutaneously in BALB/C mice, chemotherapy study
Format: in vivo, female BALB/C mice
Test context: female, mouse, in vivo; tumor-bearing BALB/C mice, intravenous; read-out: MTD of docetaxel
Protocol: The synergistic combinations provided by this invention have been evaluated in standard chemotherapy studies using female BALB/C mice weighing 18 to 20 g. The test mice were obtained from Charles River Laboratories, Wilmington, Mass. […] The mice were weighed weekly, and tumor size (width and length in mm) were measured two times each week with standard calipers. Tumor mass for each animal was calculated according to the formula: [formula] […]
Endpoint: MTD (mg/kg/day)

[[record]]
record_smiles = "CC(=O)O[C@@]12CO[C@@H]1C[C@H](O)[C@@]1(C)C(=O)[C@H](O)C3=C(C)[C@@H](OC(=O)[C@H](O)[C@@H](NC(=O)OC(C)(C)C)c4ccccc4)C[C@@](O)([C@@H](OC(=O)c4ccccc4)[C@H]21)C3(C)C"
quantity_unit = "mg/kg/day"
result = 9

